# Tested on: CAMKK2
# MEASUREMENT_CONTEXT: concentration: 1 μM, replicates: in singlicate; n = 1;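 note: KINOMEscan kinase panel screen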
MEASURED_PARAMETER: %Inh (%)
Numeric answer only, unit % assumed.

Some solved cases for reference:
COC(=O)c1cccc(NC(=O)NC2CCN(c3ccnc(Nc4ccc(F)cc4)n3)C2)c1 (stereo not drawn) = 0
COc1ccc2cc(-c3nc(-c4ccccc4C(C)C)[nH]c3-c3ccncc3)ccc2c1 = 0
Cc1ccc(NC(=O)c2ccc(Cl)cc2)cc1-c1ccc(C(=O)Nc2ccncc2)cc1 = 5
CC(C)c1ccc(O)cc1Nc1ccnc2ccc(C(F)(F)F)cc12 = 0
CNc1cc(-c2ccc3c(N)n[nH]c3c2)nc(N)n1 = 11
COc1ccc(CSc2nnc(-c3ccc4ncsc4c3)o2)cc1C(F)(F)F = 0
COc1ccc(Nc2nccc(N3CCC(NC(=O)C(C)c4ccc(Cl)cc4)C3)n2)cc1 (stereo not drawn) = 5
COc1ccc(Nc2nccc(-c3ccc(NC(=O)c4cc5cc(F)ccc5[nH]4)cc3)n2)cc1 = 17

Observed %Inh, CAMKK2, COc1cc2ncnc(Nc3cccc(Br)c3)c2cc1OC.Cl : 16

Observed %Inh, CAMKK2, Cc1ccccc1-c1cc(-c2c[nH]nc2-c2ccccn2)ccn1 : 0

Observed %Inh, CAMKK2, FC(F)(F)c1ccccc1-c1cc(-c2c[nH]nc2-c2ccccn2)ccn1 : 21

Observed %Inh, CAMKK2, CS(=O)(=O)CCNCc1nc(-c2ccc3ncnc(Nc4ccc(OCc5ccccc5)c(Cl)c4)c3c2)cs1.Cl : 7

Observed %Inh, CAMKK2, Fc1ccc(-c2nc[nH]c2-c2ccncc2)cc1 : 1

---

# System: IGF1R
# MEASUREMENT_CONTEXT: concentration: 1 μM, replicates: in singlicate; n = 1
MEASURED_PARAMETER: %Inh (%)
Numeric answer only, unit % assumed.

CCc1ccc(-c2ccc3c(c2)-c2n[nH]cc2S(=O)(=O)N3C)cc1 = 0

Looking up Cc1ccc(-c2nc(Nc3ccncc3)c3ccccc3n2)s1 , I found its %Inh recorded as 18

Looking up COc1nccc(-c2c(-c3ccc(F)cc3)ncn2CCCN2CCOCC2)n1 , I found its %Inh recorded as 0

Looking up O=C(Nc1n[nH]c2nc(-c3ccco3)c(Br)cc12)C1CCN(Cc2ccccc2)C1.O=C(O)[C@H](O)[C@@H](O)C(=O)O (stereo not drawn) , I found its %Inh recorded as 0

Looking up CNc1nc(-c2ccc3c(N)n[nH]c3c2)cc(N2C[C@@H](C(=O)NC3CCCCC3)OC[C@H]2C)n1 , I found its %Inh recorded as 8

Looking up CS(=O)(=O)CCNCc1nc(-c2ccc3ncnc(Nc4ccc5c(cnn5Cc5ccccc5)c4)c3c2)cs1.Cl.Cl , I found its %Inh recorded as 19

---

# Tested on: EPHB6
# MEASUREMENT_CONTEXT: concentration: 1 μM, replicates: in singlicate; n = 1
Each entry below carries its recorded %Inh.
Numeric answer only, unit % assumed.

Some solved cases for reference:
Fc1ccc(-c2nc[nH]c2-c2ccncc2)cc1 = 3
CNc1cc(-c2ccc3c(N)n[nH]c3c2)nc(N)n1 = 0
CS(=O)(=O)Cc1ccc(Nc2nccc(-c3c(-c4cccc(NC(=O)C5CCCCC5)c4)nn4ncccc34)n2)cc1 = 42
CCn1c(-c2c(N)noc2C)nc2cnccc21 = 0

Looking up Cc1ccc(-c2nc(Nc3ccncc3)c3ccccc3n2)s1 , I found its %Inh recorded as 2

Looking up Cc1c(Cn2c3ccccc3n3c(=O)cc(N4CCOCC4)nc23)cccc1C(F)(F)F , I found its %Inh recorded as 0

Looking up COc1ccc(Nc2nccc(N3CCC(NC(=O)c4cc5ccccc5s4)C3)n2)cc1 (stereo not drawn) , I found its %Inh recorded as 17

Looking up COc1ccc2cc(-c3nc(-c4ccccc4C(C)C)[nH]c3-c3ccncc3)ccc2c1 , I found its %Inh recorded as 0

Looking up CNC(=O)c1ccc(C)c(-n2c(C)cc(OCc3ccc(F)cc3F)c(Br)c2=O)c1 , I found its %Inh recorded as 0

Looking up O=C(Nc1n[nH]c2nc(-c3ccco3)c(Br)cc12)C1CCN(Cc2ccccc2)C1.O=C(O)[C@H](O)[C@@H](O)C(=O)O (stereo not drawn) , I found its %Inh recorded as 34

Looking up CCn1c(-c2ccccc2)nc2cnccc21 , I found its %Inh recorded as 0

---

# Test system: VEGFR2
# Construct: gene KDR
# MEASUREMENT_CONTEXT: concentration: 1 μM, replicates: in singlicate; n = 1
Each entry below carries its recorded %Inh.
Numeric answer only, unit % assumed.

Some solved cases for reference:
COc1ccc(CSc2nnc(-c3ccc4c(c3)CCO4)o2)cc1 = 0
CCCCc1nn2ncccc2c1-c1ccnc(NC2CC2)n1 [GW684374] = 0
CNc1nc(-c2ccc3c(N)n[nH]c3c2)cc(N2C[C@@H](C(=O)NC3CCCCC3)OC[C@H]2C)n1 [GSK2375584] = 17

Observed %Inh, VEGFR2, O=C(Nc1n[nH]c2cc(-c3ccsc3)ccc12)C1CC1 [SB-732932] : 13

Observed %Inh, VEGFR2, Nc1cccc(-c2ccc3c(N)n[nH]c3c2)n1 [GSK2192730] : 19

Observed %Inh, VEGFR2, O=C(Nc1n[nH]c2nc(-c3ccco3)c(Br)cc12)C1CCN(Cc2ccccc2)C1.O=C(O)[C@H](O)[C@@H](O)C(=O)O (stereo not drawn) [SB-742034] : 7

Observed %Inh, VEGFR2, COc1ccc2cc(-c3nc(-c4ccccc4C(C)C)[nH]c3-c3ccncc3)ccc2c1 [SB-660566] : 0

Observed %Inh, VEGFR2, Cc1c(Cn2c(C)c(C)n3c(=O)cc(N4CCOCC4)nc23)cccc1C(F)(F)F [GSK2328680] : 0

Observed %Inh, VEGFR2, CC(C)c1ccc(O)cc1Nc1ccnc2ccc(C(F)(F)F)cc12 [GW482059] : 0

---

# Test system: ERK5
# Construct: gene MAPK7
# MEASUREMENT_CONTEXT: concentration: 1 μM, replicates: in singlicate; n = 1
Each entry below carries its recorded %Inh.
Numeric answer only, unit % assumed.

Looking up COC(=O)c1cccc(NC(=O)NC2CCN(c3ccnc(Nc4ccc(OC)cc4)n3)C2)c1 (stereo not shown) , I found its %Inh recorded as 6

---

# System: PIP5K1A
# MEASUREMENT_CONTEXT: concentration: 1 μM, replicates: in singlicate; n = 1
MEASURED_PARAMETER: %Inh (%)
Numeric answer only, unit % assumed.

CNCc1ccc2nc(NC(=O)c3ccc(C(C)(C)C)cc3)cn2c1 = 0
O=C(Nc1n[nH]c2nc(-c3cccs3)c(Br)cc12)C1CC1 [SB-735297] = 15
O=C(Nc1n[nH]c2nc(-c3cccs3)c(Br)cc12)C1CCCC1 [SB-743341] = 0
Nc1nccc(-c2c(-c3ccc(F)cc3)ncn2C2CCN(Cc3ccccc3)CC2)n1 [SB-219980] = 0
O=c1cc(N2CCOCC2)nc2n(Cc3cccc(Cl)c3Cl)c3ccccc3n12 [GSK2299009] = 0
Cc1ccc(NC(=O)Nc2ccc(Cl)cc2)cc1-c1ccc(C(=O)Nc2ccncc2)cc1 [GSK1398472] = 11
CS(=O)(=O)CCNCc1nc(-c2ccc3ncnc(Nc4ccc(OCc5ccccc5)c(Cl)c4)c3c2)cs1.Cl [GW582764] = 47
COC(=O)c1cccc(NC(=O)NC2CCN(c3ccnc(Nc4ccc(F)cc4)n3)C2)c1 (centres unmarked) [GSK1379725] = 0

Looking up Cc1c(Cn2c(C)c(C)n3c(=O)cc(N4CCOCC4)nc23)cccc1C(F)(F)F [GSK2328680] , I found its %Inh recorded as 9

Looking up Cc1ccc(NC(=O)Nc2ccc(Cl)c(C(F)(F)F)c2)cc1-c1ccc(C(=O)Nc2ccncc2)cc1 [GSK1398470] , I found its %Inh recorded as 0

Looking up COc1cccc(CNC(=O)NC2CCN(c3ccnc(Nc4ccc(F)cc4)n3)C2)c1 (centres unmarked) [GSK1379723] , I found its %Inh recorded as 0

Looking up CNc1nc(-c2ccc3c(N)n[nH]c3c2)cc(N2C[C@@H](C(=O)NC3CCCCC3)OC[C@H]2C)n1 [GSK2375584] , I found its %Inh recorded as 34

Looking up Fc1ccc(-c2nc3n(c2-c2ccncc2)CCS3)cc1 [GI98581] , I found its %Inh recorded as 33

Looking up COc1ccc(CSc2nnc(-c3ccc4c(c3)CCO4)o2)cc1 , I found its %Inh recorded as 11

Looking up CNc1nc(-c2ccc3c(N)n[nH]c3c2)cc(N2C[C@@H](C(=O)Nc3ccccc3)CC[C@H]2C)n1 [GSK2298859] , I found its %Inh recorded as 0

Looking up COc1ccc(Nc2nccc(N3CCC(NC(=O)c4cc5ccccc5s4)C3)n2)cc1 (centres unmarked) [GSK1379738] , I found its %Inh recorded as 0

Looking up COc1cccc(NC(=O)Nc2ccc(C)c(-c3ccc(C(=O)Nc4ccncc4)cc3)c2)c1 [GSK1398474] , I found its %Inh recorded as 0
